Recorded values, source the supplement of paper PMC11908140.

Reported 8OG:A repair function score by item:
B1: library; numbered along this chain (parent)
chain: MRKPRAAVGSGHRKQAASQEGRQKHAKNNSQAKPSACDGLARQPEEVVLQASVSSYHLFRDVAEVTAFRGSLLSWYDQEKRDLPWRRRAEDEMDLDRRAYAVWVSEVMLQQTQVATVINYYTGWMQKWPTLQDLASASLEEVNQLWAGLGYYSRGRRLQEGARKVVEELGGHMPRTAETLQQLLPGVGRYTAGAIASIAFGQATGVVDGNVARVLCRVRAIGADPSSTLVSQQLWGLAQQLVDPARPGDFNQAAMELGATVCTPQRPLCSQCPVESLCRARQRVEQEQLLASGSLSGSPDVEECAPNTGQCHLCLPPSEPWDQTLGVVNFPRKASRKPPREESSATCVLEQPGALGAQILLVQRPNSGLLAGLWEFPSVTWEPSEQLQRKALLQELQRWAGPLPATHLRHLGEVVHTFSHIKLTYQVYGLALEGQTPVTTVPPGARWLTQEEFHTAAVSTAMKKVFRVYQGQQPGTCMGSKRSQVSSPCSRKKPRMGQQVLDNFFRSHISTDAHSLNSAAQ

# Variants of: B1
# assay-overview: 8OG:A repair function score (normalized; synonymous = 0, nonsense = -1) (normalized log-likelihood score); higher = more repair activity (WT-like);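 also: cells sorted at 72 h after reporter transfection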
# conditions-used: with 8OG:A DNA repair reporter (GFP) in HEK-293 MUTYH KO cells
A bare number is all that is needed in reply.

The following variants have reported results that may help.
- mutant-designation: "R42I"
  result-value: -0.00552
- mutant-designation: "N119G"
  result-value: 0.0963
- mutant-designation: "K337A"
  result-value: -0.0726

Sample `M255S` ; 8OG:A repair function score observed: -1.01

Sample `C314K` ; 8OG:A repair function score observed: -0.485

Sample `H312F` ; 8OG:A repair function score observed: -0.000263

Sample `R42M` ; 8OG:A repair function score observed: -0.196

Sample `T122D` ; 8OG:A repair function score observed: 0.0468

Sample `A99T` ; 8OG:A repair function score observed: -0.459
